Origin of the recorded values: patent US20260242320A1

Assay: Pharmacokinetic profiles in brain and plasma after oral administration
Format: in vivo, mice
Details: male, BALB/c, mouse, po; brain, 10 mg/kg p.o., mice; read-out: Tmax
propertyMeasured: Tmax (min)
Give the value in min but do not write min after it.

*Q* For the compound C=C(C)[C@@H]1CCC(C)=C[C@H]1c1c(O)cc(C(C)n2nccn2)cc1O (stereo partly shown) , what Tmax is on record?
*A* 18

* * *

Experiment: Pharmacokinetic profiles in brain and plasma after oral administration
Type: in vivo, mice
Conditions: male, BALB/c, mouse, brain / plasma, po; 2 h, 10 mg/kg p.o.; read-out: B/P ratio
propertyMeasured: Kp at 2 h
Write no unit; give the number alone.

*Q* For the compound C=C(C)[C@@H]1CCC(C)=C[C@H]1c1c(O)cc(C(C)n2nccn2)cc1O (stereo partly shown) , what Kp at 2 h is on record?
*A* 4.12
